test system: Ctenocephalides felis; assay: Parasiticidal activity against Ctenocephalides felis assessed as mortality after 24 hrs by cat flea assay; type: functional; parameters: concentration or dose not given beside the values
measuredAttribute: Activity (%)

{"columns": ["itemSmiles", "systemUnderTest", "numericResult"],
 "data": [
  ["CC/C(=N\\Oc1cccc(C(F)(F)F)c1)c1cc(Cl)ccc1NS(=O)(=O)C(F)(F)F", "Ctenocephalides felis", 71],
  ["C=CCO/N=C(\\C)c1cc(Cl)ccc1NS(=O)(=O)C(F)(F)F", "Ctenocephalides felis", 100],
  ["C/C(=N\\OCC1CCCC1)c1cc(Cl)ccc1NS(=O)(=O)C(F)(F)F", "Ctenocephalides felis", 97],
  ["C#CCO/N=C(\\C)c1cc(Cl)ccc1NS(=O)(=O)C(F)(F)F", "Ctenocephalides felis", 100],
  ["CCO/N=C(\\C)c1cc(Cl)ccc1NS(=O)(=O)C(F)(F)F", "Ctenocephalides felis", 100],
  ["CC/C(=N\\OCc1ccc(Cl)cc1)c1cc(Cl)ccc1NS(=O)(=O)C(F)(F)F", "Ctenocephalides felis", 100],
  ["C/C(=N\\Oc1ccc(Br)cc1)c1cc(Cl)ccc1NS(=O)(=O)C(F)(F)F", "Ctenocephalides felis", 91],
  ["C/C(=N\\Oc1ccc(Cl)c(Cl)c1)c1cc(Cl)ccc1NS(=O)(=O)C(F)(F)F", "Ctenocephalides felis", 71],
  ["CC(C)/C(=N\\Oc1ccc(Cl)cc1)c1cc(Cl)ccc1NS(=O)(=O)C(F)(F)F", "Ctenocephalides felis", 100],
  ["C#CCO/N=C(\\CC)c1cc(Cl)ccc1NS(=O)(=O)C(F)(F)F", "Ctenocephalides felis", 100],
  ["CC/C(=N\\OCc1ccc(Br)cc1)c1cc(Cl)ccc1NS(=O)(=O)C(F)(F)F", "Ctenocephalides felis", 78],
  ["CC/C(=N\\OCc1cccc(Cl)c1Cl)c1cc(Cl)ccc1NS(=O)(=O)C(F)(F)F", "Ctenocephalides felis", 63],
  ["CC/C(=N\\Oc1ccc(Br)cc1)c1cc(Cl)ccc1NS(=O)(=O)C(F)(F)F", "Ctenocephalides felis", 78],
  ["C/C(=N\\OCc1ccc(Cl)cc1)c1ccc(C(F)(F)F)cc1NS(=O)(=O)C(F)(F)F", "Ctenocephalides felis", 100],
  ["CCC/C(=N\\OCC1CCCCC1)c1cc(Cl)ccc1NS(=O)(=O)C(F)(F)F", "Ctenocephalides felis", 70],
  ["O=S(=O)(Nc1ccc(Cl)cc1/C(=N/OC1CCCCC1)c1ccccc1)C(F)(F)F", "Ctenocephalides felis", 12],
  ["CCC/C(=N\\OC1CCCCC1)c1cc(Cl)ccc1NS(=O)(=O)C(F)(F)F", "Ctenocephalides felis", 43],
  ["C/C(=N\\OCC(F)(F)F)c1cc(Cl)ccc1NS(=O)(=O)C(F)(F)F", "Ctenocephalides felis", 100],
  ["CC/C(=N\\OCC1CC1)c1cc(Cl)ccc1NS(=O)(=O)C(F)(F)F", "Ctenocephalides felis", 100],
  ["CC/C(=N\\Oc1cccc(Cl)c1)c1cc(Cl)ccc1NS(=O)(=O)C(F)(F)F", "Ctenocephalides felis", 100]
]}
